- test.target: Papain (Carica papaya, UniProt P00784)
- Sequence (P00784 whole entry): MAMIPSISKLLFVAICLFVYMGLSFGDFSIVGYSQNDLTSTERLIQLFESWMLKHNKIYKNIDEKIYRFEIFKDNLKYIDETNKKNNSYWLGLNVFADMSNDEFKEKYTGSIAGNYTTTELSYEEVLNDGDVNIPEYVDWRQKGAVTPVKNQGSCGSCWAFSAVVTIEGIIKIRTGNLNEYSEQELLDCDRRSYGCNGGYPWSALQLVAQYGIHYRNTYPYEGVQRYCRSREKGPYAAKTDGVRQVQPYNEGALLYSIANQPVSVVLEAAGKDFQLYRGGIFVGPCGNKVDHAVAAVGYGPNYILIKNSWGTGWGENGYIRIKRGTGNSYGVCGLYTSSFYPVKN
Multiple publications report Ki for Papain (Carica papaya, UniProt P00784); what follows is a combined list.
reported.endpoint: Ki (µM)

| smiles.str | readout.unit | reported.result |
| --- | --- | --- |
| CC(C)CCNC(=O)[C@H](CC(C)C)NC(=O)[C@H]1O[C@@H]1C(=O)NO | µM | 6.6 |
| COC(=O)[C@@H](NC(=O)NNC(=O)[C@H](Cc1ccccc1)NC(C)=O)C(C)C | µM | 0.061 |
| CC(C)(C)OC(=O)N[C@@H](Cc1cccs1)C(=O)NCC#N | µM | 0.19 |
| N#CCNC(=O)CNC(=O)OCc1ccccc1 | µM | 1600 |
